Test system: CD2F1 mice, L1210 leukemia ip, survival T/C
Experiment: NCI In Vivo Anticancer Drug Screen. Data for tumor model L1210 Leukemia (intraperitoneal) in CD2F1 (CDF1) mice
Settings: endpoint: mean survival time; dose: 400.0 mg/kg/injection; schedule: Q01DX001 (ip); vehicle: saline with Tween-80; higher = longer survival
Inconclusive results and toxic doses are left out.
T/C reference

Request - read-out T/C | tested on CD2F1 mice, L1210 leukemia ip, survival T/C | compound `O=S(=O)(Cc1ccccc1)CS(=O)(=O)Cc1ccccc1` 86 % of control

###

Tested on: CD2F1 mice, L1210 leukemia ip, survival T/C
Test: NCI In Vivo Anticancer Drug Screen. Data for tumor model L1210 Leukemia (intraperitoneal) in CD2F1 (CDF1) mice
Conditions: endpoint: mean survival time; dose: 6.25 mg/kg/injection; schedule: Q01DX009 (ip); vehicle: saline; higher = longer survival
Inconclusive results and toxic doses are left out.
T/C reference

Solved cases below.
compound: O=C(O)CCN(Cl)Cl
measured target: CD2F1 mice, L1210 leukemia ip, survival T/C
T/C: 100 % of control

compound: C1CCN(NC2=NCCO2)CC1
measured target: CD2F1 mice, L1210 leukemia ip, survival T/C
T/C: 101 % of control

compound: CC1(C)CC(NC2=NCCO2)CC(C)(C)N1
measured target: CD2F1 mice, L1210 leukemia ip, survival T/C
T/C: 101 % of control

Request - read-out T/C | tested on CD2F1 mice, L1210 leukemia ip, survival T/C | compound COc1cc(NCC(C)(O)CN2CCCC(C)C2C)c2ncccc2c1 (stereo not given) 101 % of control

Request - read-out T/C | tested on CD2F1 mice, L1210 leukemia ip, survival T/C | compound CCNc1ncnc2c1c(C(N)=S)cn2C1OC(CO)C(O)C1O (stereo not given) 116 % of control
